Reference source: the DeepSol protein solubility set

test: soluble on expression in E. coli; label from the status in PepcDB or PDB records
quantity: soluble on expression in E. coli

The examples below pair each entry with its known result.
>  <sequence_data>
GSPGISGGGGGILDMADDDVLFEDVYELCEVIGKGAFSVVRRCINRETGQQFAVKIVDVAKFTSSPGLSTEDLKREASICHMLKHPHIVELLETYSSDGMLYMVFEFMDGADLCFEIVKRADAGFVYSEAVASHYMRQILEALRYCHDNNIIHRDVKPENVLLASKENSAPVKLGDFGVAIQLGESGLVAGGRVGTPHFMAPEVVKREPYGKPVDVWGCGVILFILLSGCLPFYGTKERLFEGIIKGKYKMNPRQWSHISESAKDLVRRMLMLDPAERITVYEALNHPWLKERDRYAYKIHLPETVEQLRKFNARRKLKGAVLAAVSSHKFNSFYGDPPEELPDFSEDPTS

>  <soluble on expression in E. coli>
soluble

$$$$
>  <sequence_data>
MGSDKIHHHHHHMQKTLNTKKANLAMERAGLTQTAVAESLAVSKEAVSQWLSSKSFPRPNKLLQLGKLLGLPFDELVIKEDPFTPKVAFRKKAGTKTKDHHIEKAQEMGRFLRHLVAYLPFDTLEMPPVLKSPSCEYDYLCKVTAKVREDINVGTAECIDFSHLIRRFSELQAVVVPVMWGVKQRHENAVHIHLPDSQSTWVYLNLDTNIHDFKFWMAHELGHCLSPSLEGDNAEDFADAFAATLLYPNELAEKAYTSINAQPSPAAKIAHVVDLADQFTISPYTVLGQANKYALSTGRNEIKLSNSFHGAVTNFNKRYKNLSEALFGDAELDEHGKPSAKEYINKAETAFETPFFELLRKYLKEHDKGPGFVQTVLDMPLLDARSIHTELT

>  <soluble on expression in E. coli>
not soluble

$$$$
>  <sequence_data>
MRPDDAIELFNSCRGHCIERQNYIENLQKRHVRKNRNVSAPRTDGLEDSADPTEQVYTNNKPVKKKPRKNRRGGHLAPSQHFQHQTQSSPYSLRKWSQNQSVYQRGLVPPPGPAGEDYSQRRFFWSARPNKWTAESYQRPFYPYYWEWNL

>  <soluble on expression in E. coli>
not soluble

$$$$
>  <sequence_data>
TGAGTPSQGKKNTTTHTKCRRCGEKSYHTKKKVCSSCGFGKSAKRRDYEWQSKAGE

>  <soluble on expression in E. coli>
soluble

$$$$
>  <sequence_data>
SSYNILSQDLLEDNSHLYRHCRRPVLHWSFRFPNILKEIKHFDADVLCLQEVQEDHYGAEIRPSLESLGYHCEYKMRTGRKPDGCAICFKHSKFSLLSVNPVEFFRPDISLLDRDNVGLVLLLQPKIPYAACPAICVANTHLLYNPRRGDIKLTQLAMLLAEISSVAHQKDGSFCPIVMCGDFNSVPGSPLYSFIKEGKLNYEGLPIGKVSGQEQSSRGQRILSIPIWPPNLGISQNCVYEVQQVPKVEKTDSDLTQTQLKQTEVLVTAEKLSSNLQHHFSLSSVY

>  <soluble on expression in E. coli>
soluble

$$$$

Data request: Given the sequence MVESQFEQDSQISTDSPLVLVKAAEKTSAIQQLLDYISNYQMISSNSIPIKSMDKIMMLKLDDIILVDVNQTTLKIYTLTGVFTTTETLVHFANRLNKSNFIQISKHALINLDHLESLSDSFSGNMMAKLSSNIKSSVSRKYVKGLMTQLGI , write its reported soluble on expression in E. coli.
Data returned: not soluble

Data request: Given the sequence MGHHHHHHSHALQVDISDALSERDKVKFTVHTKSSLPNFKQNEFSVVRQHEEFIWLHDSFVENEDYAGYIIPPAPPRPDFDASREKLQKLGEGEGSMTKEEFTKMKQELEAEYLAIFKKTVAMHEVFLCRVAAHPILRRDLNFHVFLEYNQDLSVRGKNKKEKLEDFFKNMVKSADGVIVSGVKDVDDFFEHERTFLLEYHNRVKDASAKSDRMTRSHKSAADDYNRIGSSLYALGT , write its reported soluble on expression in E. coli.
Data returned: not soluble

Data request: Given the sequence MNIRPLHDKLIVERLEVENKSEGGIVLTSQSVKKSNRGKVVAVGLGRPLKNGDRARMEVKTGDQIIFNDGYGVKTEKVDGKEYLILSESDVLAIVE , write its reported soluble on expression in E. coli.
Data returned: soluble

Data request: Given the sequence MNLLQHIAQSRQQLRKSELKVADHVLNDPASVMHSSMAELAHGVGVSEPTIVRFCRAIGCSGFQDLKLKLAQSLAAGASFGQFSIHESDSVADFSLKIFDTTLHSLMEVREHLDTHALERAIAAIAHAQRVEFYGFGASGAVASDAQHKFFRLLLSAAAYSDPHMQAMSAVTLKPSDVAICISQSGRSKDLLITANLVREAGATLITLCPSQTPLADLATVNLAIDVHEDTDIYTPLTSRIAHLVVIDVLAMGVAMARGPDLVNHLKSVKRSLRSLRLSPKVMKNQEERGEPS , write its reported soluble on expression in E. coli.
Data returned: not soluble

Data request: Given the sequence MGSDKIHHHHHHMRFDLIDLRLFLHILETGSITHGAARANMSLPSASARLRGMEDALGMPLLERGRRGVESTPTGDTLAHHARLVLGQIERMQGELGEHQEGRKACIRLWTNTAAITEFLPAAIGLFLRDHPNVQIDLKERQSSETVKAVLSGAAEIGIISDAVEHGALQTFPFAIDKLVLVTSRDDALATCRRTTLAEVADREFIGLSADSALQAYLGERALLAGQPLSFRTHVRTFDAVCCMVDQGAGVGIVPATAAKRYRGTPGIRTIELTDSWATRQLLICMRDLNAMARPEKALVRHLAGI , write its reported soluble on expression in E. coli.
Data returned: not soluble

Data request: Given the sequence MLSFRNWWAREDSNPRPPGYEPGALPTELRAHTAIRLYSNKTPLSRSVISMKKDPIKEMLVKYPRILVIKAALKILKDGNKIDRERIEKTIVKIMTKKEGLEHHHHHH , write its reported soluble on expression in E. coli.
Data returned: soluble

Data request: Given the sequence MRTHTGKIPDHFVPRISMTEEQRRVVFMLNSLLLDYPEEGFVDKLNAVEAQLDVLPLPVAAHVVEFLDAARVAGLRAMQEAYVETFDQRRRCSLFLTYYAVGDTRQRGTAILTFRQTLQQLGFESERDELPDHLCVVLEAAALADSSLFDAATQVLSAHRDGIEVLRAALDNLDSPYRYLIMSLCQALPEIDEETANSYMELIRSGPPAEMVGIGTPLPFPTSQPDIH , write its reported soluble on expression in E. coli.
Data returned: not soluble

Data request: Given the sequence AIASARVRSRSRGRGDGQEAPDVVAFVAPGESQQEEPPTDNQDIEPGQEREGTPPIEERKVEGDCQEMDLEKTRSERGDGSDVKEKTPPNPKHAKTKEAGDGQP , write its reported soluble on expression in E. coli.
Data returned: soluble
